Where do these numbers come from? They come from paper PMC3947174.

# pKi per entry
Assayed System: T1, iCAL36VQD-3
T1 chain: ANSRVQDSII
Protocol Notes: fluorescence polarization competition
pKi: −log10 of the molar value.

Illustrative cases are given below, each with its answer.
[
  {
    "Binder": "N1P2 PDZ2 (protein) RPRLCTMKKGPSGYGFNLHSDKSKPGQFIRSVDPDSPAEASGLRAQDRIVEVNGVCMEGKQHGDVVSAIRAGGDETKLLVVDRETDE",
    "pKi": "< 3.00"
  },
  {
    "Binder": "N2P1 PDZ1 (protein) RPRLCRLVRGEQGYGFHLHGEKGRRGQFIRRVEPGSPAEAAALRAGDRLVEVNGVNVEGETHHQVVQRIKAVEGQTRLLVVDQETD",
    "pKi": "< 3.00"
  }
]

// below: pKi requested for another binder
What the record says about N1P1 PDZ1 (protein) LPRLCCLEKGPNGYGFHLHGEKGKLGQYIRLVEPGSPAEKAGLLAGDRLVEVNGENVEKETHQQVVSRIRAALNAVRLLVVDPETDE : pKi is < 3.00
